Assignment: determine reported TIMS collisional cross section for the given compounds.
experiment: TIMS collisional cross section (CCS, N2) of the lipid ion; higher = larger ion cross section; details: sample type: plasma; ionization mode: positive; one isomer drawn
One number for each entry, in Å².

Use these answered entries as a reference point.
The value of TIMS collisional cross section measured for the compound CCCCCCCCCCCCCCCCCC(=O)OC[C@@H](COC(=O)CCCCCCCCCCCCCCC)OC(=O)CCCCCCCCCCCCCCC [TG 16:0_16:0_18:0] (ion (formula + adduct): [C53H102O6+NH4] 1+) turned out to be 320.25

The value of TIMS collisional cross section measured for the compound CCCCCCCC/C=C\CCCCCCCCCCCC(=O)OC[C@@H](COC(=O)CCCCCCCCCCCCCCCCC)OC(=O)CCCCCCCCCCCCCCCCCCCCC [TG 18:0_22:0_22:1] (ion (formula + adduct): [C65H124O6+NH4] 1+) turned out to be 352.8

The value of TIMS collisional cross section measured for the compound CCCCCCCCCCCCCCCC(=O)OC[C@@H](O)COP(=O)([O-])OCC[N+](C)(C)C [LPC 16:0_0:0] (ion (formula + adduct): [C24H50NO7P+H] 1+) turned out to be 229.87

Please state, for each entry, its recorded TIMS collisional cross section.
1. CCCCCCCC/C=C\CCCCCCCCCCCCCC(=O)N[C@@H](COP(=O)([O-])OCC[N+](C)(C)C)[C@H](O)/C=C/CCCCCCCCCCC [SM d16:1_24:1@] (ion (formula + adduct): [C45H89N2O6P+H] 1+)
2. CCCCCC/C=C\CCCCCCCC(=O)OC[C@@H](COC(=O)CCCCCCCCCCCCC)OC(=O)CCCCCCC/C=C\CCCCCC [TG 14:0_16:1_16:1] (ion (formula + adduct): [C49H90O6+NH4] 1+)
3. CCCCC/C=C\C/C=C\C/C=C\CCCCC(=O)O[C@H](COC(=O)CCCCCCC/C=C\CCCCCC)COP(=O)([O-])OCC[N+](C)(C)C [PC 16:1@_18:3] (ion (formula + adduct): [C42H76NO8P+H] 1+)

299.8
303.5
280.6

Please state, for each entry, its recorded TIMS collisional cross section.
1. CCCCC/C=C\C/C=C\CCCCCCCC(=O)OC[C@@H](COC(=O)CCCCCCCCCCCCC)OC(=O)CCCCCCC/C=C\CCCCCC [TG 14:0_16:1_18:2] (ion (formula + adduct): [C51H92O6+NH4] 1+)
2. CCCCCCCC/C=C\CCCCCCCC(=O)O[C@H](CO/C=C\CCCCCCCCCCCCCC)COP(=O)([O-])OCC[N+](C)(C)C [PC P- 16:0@_18:1] (ion (formula + adduct): [C42H82NO7P+H] 1+)

307.8
287.7

Please state, for each entry, its recorded TIMS collisional cross section.
1. CCCCC/C=C\C/C=C\C/C=C\C/C=C\CCCCCC(=O)O[C@H](COC(=O)CCCCCCCCCCCCCCCCC)COP(=O)([O-])OCC[N+](C)(C)C [PC 18:0@_22:4] (ion (formula + adduct): [C48H88NO8P+H] 1+)
2. CCCCC/C=C\C/C=C\C/C=C\C/C=C\CCCC(=O)O[C@@H](CO)COC(=O)CCCCCCC/C=C\CCCCCCCC [DG 18:1_20:4_0:0] (ion (formula + adduct): [C41H70O5+NH4] 1+)
3. CCCCC/C=C\C/C=C\CCCCCCCC(=O)O[C@H](COC(=O)CCCCCCC/C=C\CCCCCCCC)COC(=O)CCCCCCCCCCCCCCCCCCCCC [TG 18:1_18:2_22:0] (ion (formula + adduct): [C61H112O6+NH4] 1+)
4. CCCCCCCC/C=C\CCCCCCCC(=O)N[C@@H](COP(=O)([O-])OCC[N+](C)(C)C)[C@H](O)/C=C/CCCCCCCCCCCCC [SM d18:1@_18:1@] (ion (formula + adduct): [C41H81N2O6P+H] 1+)
5. CCCCC/C=C\C/C=C\CCCCCCCC(=O)OC[C@@H](COC(=O)CCCCCCCCCCCCCC)OC(=O)CCCCCCC/C=C\CCCCCC [TG 15:0_16:1_18:2] (ion (formula + adduct): [C52H94O6+NH4] 1+)
6. CCCCC/C=C\C/C=C\CCCCCCCC(=O)O[C@@H](CO)COC(=O)CCCCCCC/C=C\CCCCCC [DG 16:1_18:2_0:0] (ion (formula + adduct): [C37H66O5+NH4] 1+)
7. CCCCCCCC/C=C\CCCCCCCC(=O)OC[C@H](COC(=O)CCCCCCCCCCCCCCCCCCCCC)OC(=O)CCCCCCC/C=C\CCCCCCCC [TG 18:1_18:1_22:0] (ion (formula + adduct): [C61H114O6+NH4] 1+)
8. CCCCCC/C=C\CCCCCCCC(=O)O[C@@H](COC(=O)CCCCCCC/C=C\CCCCCCCC)COC(=O)CCCCCCCCCCC [TG 12:0_16:1_18:1] (ion (formula + adduct): [C49H90O6+NH4] 1+)

1. 300.7
2. 265.8
3. 337.6
4. 287.5
5. 310.4
6. 253.8
7. 339.3
8. 303.25

Please state, for each entry, its recorded TIMS collisional cross section.
1. CCCCC/C=C\C/C=C\C/C=C\CCCCCCC(=O)O[C@H](CO/C=C\CCCCCCCCCCCCCCCC)COP(=O)(O)OCCN [PE P- 18:0@_20:3] (ion (formula + adduct): [C43H80NO7P+H] 1+)
2. CCCCCCCCCCCCCC(=O)OC[C@@H](COC(=O)CCCCCCCCCCC)OC(=O)CCCCCCCCCCC [TG 12:0_12:0_14:0] (ion (formula + adduct): [C41H78O6+NH4] 1+)

1: 282.7; 2: 282.9
